Cited source for all entries: ChEMBL document CHEMBL4402576

- SUBJECT_OF_TEST: Glycogen [starch] synthase, muscle (Homo sapiens, UniProt P13807)
- Sequence (P13807 whole entry): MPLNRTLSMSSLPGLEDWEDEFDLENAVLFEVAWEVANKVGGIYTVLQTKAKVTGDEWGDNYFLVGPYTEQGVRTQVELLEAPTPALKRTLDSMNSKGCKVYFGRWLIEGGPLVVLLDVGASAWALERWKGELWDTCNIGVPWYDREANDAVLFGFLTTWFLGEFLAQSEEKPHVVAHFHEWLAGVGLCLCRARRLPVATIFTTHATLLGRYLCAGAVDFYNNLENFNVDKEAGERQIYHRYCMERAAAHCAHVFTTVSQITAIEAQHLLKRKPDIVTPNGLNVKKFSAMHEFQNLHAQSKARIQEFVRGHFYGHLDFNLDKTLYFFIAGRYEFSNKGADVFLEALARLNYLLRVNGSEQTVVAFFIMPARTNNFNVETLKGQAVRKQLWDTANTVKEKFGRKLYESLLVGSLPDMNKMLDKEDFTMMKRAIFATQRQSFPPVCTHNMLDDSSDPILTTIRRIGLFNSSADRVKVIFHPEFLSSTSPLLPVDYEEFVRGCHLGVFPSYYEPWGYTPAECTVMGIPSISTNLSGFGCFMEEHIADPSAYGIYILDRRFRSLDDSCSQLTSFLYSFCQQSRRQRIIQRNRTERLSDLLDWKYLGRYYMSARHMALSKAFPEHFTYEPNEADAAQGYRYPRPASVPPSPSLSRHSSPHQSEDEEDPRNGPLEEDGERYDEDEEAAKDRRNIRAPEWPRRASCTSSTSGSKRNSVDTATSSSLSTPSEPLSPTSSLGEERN
- EXPERIMENT_NOTES: Competitive inhibition of C-terminal 6His-tagged human GYS1 using UDPG as substrate in presence of G-6-P by 14C-glucose incorporation based Michaelis-Menton plot analysis
METRIC: pKi
The quantity pKi is defined as the negative base-10 logarithm of the molar concentration.

Output measured pKi for this item: Oc1ccc(-c2c(-c3ccc(O)c(O)c3O)n[nH]c2C(F)(F)F)cc1 5.88

###

- Species on record: Homo sapiens
- EXPERIMENT_NOTES: Inhibition of C-terminal 6His-tagged human GYS1 delta634S8,11N mutant assessed as enzyme activity at 300 uM using UDPG as substrate in presence of 0.4 mM G-6-P by 14C-glucose incorporation assay relative to control
- Design: scale not given: the % may be the effect or the level left
Outcome label depends on Activity relative to 50%: at/above gives T, below gives F.

Illustrative cases are given below, each with its answer.
Cc1[nH]nc(-c2ccc(O)c(O)c2O)c1-c1ccc(Cl)cc1 | F
CN1CCCC1CCn1cnc(-c2ccccc2)c1-c1ccncc1 (configuration not stated) | T
Oc1ccc(-n2c(-c3ccccc3)ccc2-c2ccccc2)cc1 | T
COc1cc(-c2c(-c3ccccc3)ncn2CCC2CCCN2C)ccc1O (racemic) | F
O=C(O)CCc1ccc(-c2ccccc2)n1-c1ccc(O)cc1 | F

Textbook exercise: given the entry O=C(O)CCc1ccc(-c2ccccc2)n1-c1ccc(F)cc1 , state whether its Activity is greater than or equal to 50%. T

Textbook exercise: given the entry Oc1ccc(-c2c(-c3ccccc3)ncn2CCc2c[nH]cn2)cc1 , state whether its Activity is greater than or equal to 50%. T

Textbook exercise: given the entry Cc1ccc(-c2ccccc2)n1-c1ccc(O)cc1 , state whether its Activity is greater than or equal to 50%. T

Textbook exercise: given the entry Oc1ccc(-c2c(-c3ccccc3)ncn2CCCn2ccnc2)cc1 , state whether its Activity is greater than or equal to 50%. T

Textbook exercise: given the entry NC(=O)c1ccc(-n2c(CCC(=O)O)ccc2-c2ccccc2)cc1 , state whether its Activity is greater than or equal to 50%. F

Textbook exercise: given the entry c1ccc(-c2ncn(CCc3c[nH]cn3)c2-c2ccncc2)cc1 , state whether its Activity is greater than or equal to 50%. T
